Value source: the supplement of paper PMC10567573

protein stability index listing for selected variants.
B1: MYL5 (parent)
chain: FQFASIDVAGNLDYKALSYVITHG

variants of: B1; test: protein stability index of a GFP-peptide fusion (GPS, HEK-293T) (PSI 1-6); higher = more stable; conditions: c terminus: a fixed tail appended;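 further: lentivirally expressed fusions sorted by FACS into six bins by GFP to DsRed ratio, PSI derived from sequencing read proportions per bin multiplied by bin number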
Readout Kind: protein stability index

Sequence	Readout Kind	Measured Result
FQFASIDVTGNLDYKALSYVITHG [A9T]	protein stability index	3.01
FQFASIDVAPNLDYKALSYVITHG [G10P]	protein stability index	2.92
FQFASIDVAGTLDYKALSYVITHG [N11T]	protein stability index	2.92
FQFASIDVAGNLDYKALSYVITAG [H23A]	protein stability index	2.01
FQFASIDVAGNLDYKALSYVIMHG [T22M]	protein stability index	2.95
FQFASIDVAGNLDQKALSYVITHG [Y14Q]	protein stability index	2.03
FQFASIDVAGCLDYKALSYVITHG [N11C]	protein stability index	3.05
FQFASIDVAGNLDYKALSYQITHG [V20Q]	protein stability index	2.96
